Tested on: 628569-122-R-J1-PDC complex spheroid viability
Method Notes: Anticancer human tumor 628569-122-R-J1-PDC patient-derived head and neck squamous carcinoma cell line growth inhibition [CLK]; active = viability on the fitted dose curve at most 10% of control; inactive = the rest
Condition Notes: second compound 3.16 µM; first compound 3.16 µM
Outcomes you can answer with include only these: active, inactive

Problem: Recorded test call requested for O=c1[nH]cc(F)c(=O)[nH]1 + CNC(=O)c1ccc(Nc2nc(OC3CCCC3)c3c(-c4ccc5nc(C)oc5c4)c[nH]c3n2)c(OC)c1
Result: inactive

Problem: // return assay outcome for CC(=O)O[C@H]1C(=O)[C@@]2(C)[C@H]([C@H](OC(=O)c3ccccc3)[C@]3(O)C[C@H](OC(=O)[C@H](O)[C@@H](NC(=O)c4ccccc4)c4ccccc4)C(C)=C1C3(C)C)[C@]1(OC(C)=O)CO[C@@H]1C[C@@H]2O + CN1CCN(c2cc(C(=O)Nc3cc4cc(-c5cnn(C)c5)ccc4cn3)ccn2)CC1
Result: active

###

Tested on: 628569-122-R-J1-PDC complex spheroid viability
Method Notes: Anticancer human tumor 628569-122-R-J1-PDC cell line growth inhibition [CLK];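 note: spheroids exposed to agents for seven days before readout; 100% = DMSO vehicle control viability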
Condition Notes: second compound 0.316 µM; first compound 0.0316 µM; stronger effect = lower value
The entries below come with measured viability, T/C values attached.
Give just the numeric value; % need not be written.

CC(=O)O[C@H]1C(=O)[C@@]2(C)[C@H]([C@H](OC(=O)c3ccccc3)[C@]3(O)C[C@H](OC(=O)[C@H](O)[C@@H](NC(=O)c4ccccc4)c4ccccc4)C(C)=C1C3(C)C)[C@]1(OC(C)=O)CO[C@@H]1C[C@@H]2O + CNC(=O)c1ccc(Nc2nc(OC3CCCC3)c3c(-c4ccc5nc(C)oc5c4)c[nH]c3n2)c(OC)c1: 43.1
CCCS(=O)(=O)Nc1ccc(F)c(C(=O)c2c[nH]c3ncc(-c4ccc(Cl)cc4)cc23)c1F + CNC(=O)c1ccc(Nc2nc(OC3CCCC3)c3c(-c4ccc5nc(C)oc5c4)c[nH]c3n2)c(OC)c1: 51.7
CCN1CCN(Cc2ccc(Nc3ncc(F)c(-c4cc(F)c5nc(C)n(C(C)C)c5c4)n3)nc2)CC1 + CNC(=O)c1ccc(Nc2nc(OC3CCCC3)c3c(-c4ccc5nc(C)oc5c4)c[nH]c3n2)c(OC)c1: 51.7

Please look at the following compound next.
Problem: Provide measured viability, T/C value, entry: CC(=O)O[C@H]1C(=O)[C@@]2(C)[C@H]([C@H](OC(=O)c3ccccc3)[C@]3(O)C[C@H](OC(=O)[C@H](O)[C@@H](NC(=O)c4ccccc4)c4ccccc4)C(C)=C1C3(C)C)[C@]1(OC(C)=O)CO[C@@H]1C[C@@H]2O + CN1CCN(c2cc(C(=O)Nc3cc4cc(-c5cnn(C)c5)ccc4cn3)ccn2)CC1
Result: 33.2

###

Test system: 628569-122-R-J1-PDC complex spheroid viability
Method Notes: Anticancer human tumor 628569-122-R-J1-PDC cell line growth inhibition [CLK];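 note: spheroids exposed to agents for seven days before readout; 100% = DMSO vehicle control viability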
Condition Notes: second compound 0.316 µM; first compound 0.316 µM; stronger effect = lower value
Each record is given Yes if its reported viability, T/C is strictly below 40%. Records at or above 40% are given No.

Solved entries (count: 6):
C=CC(=O)N1CCN(c2nc(=O)n(-c3c(C)ccnc3C(C)C)c3nc(-c4c(O)cccc4F)c(F)cc23)C(C)C1 (stereo unspecified) + CN1CCN(c2cc(C(=O)Nc3cc4cc(-c5cnn(C)c5)ccc4cn3)ccn2)CC1: No
CCN1CCN(Cc2ccc(Nc3ncc(F)c(-c4cc(F)c5nc(C)n(C(C)C)c5c4)n3)nc2)CC1 + CN1CCN(c2cc(C(=O)Nc3cc4cc(-c5cnn(C)c5)ccc4cn3)ccn2)CC1: No
COC1C=CCC(C)C(C)S(=O)(=O)NC(=O)c2ccc3c(c2)N(CC2CCC21)CC1(CCCc2cc(Cl)ccc21)CO3 (stereo unspecified) + CNC(=O)c1ccc(Nc2nc(OC3CCCC3)c3c(-c4ccc5nc(C)oc5c4)c[nH]c3n2)c(OC)c1: Yes
CC(Nc1ccc2c(c1)OCCn1cc(N3C(=O)OCC3C(F)F)nc1-2)C(N)=O (stereo unspecified) + CNC(=O)c1ccc(Nc2nc(OC3CCCC3)c3c(-c4ccc5nc(C)oc5c4)c[nH]c3n2)c(OC)c1: Yes
O=c1[nH]cc(F)c(=O)[nH]1 + CN1CCN(c2cc(C(=O)Nc3cc4cc(-c5cnn(C)c5)ccc4cn3)ccn2)CC1: Yes
C=C(F)C(=O)N1CCN(c2nc(OCC3CCCN3C)nc3c2CCN(c2cccc4cccc(Cl)c24)C3)CC1CC#N (stereo unspecified) + CN1CCN(c2cc(C(=O)Nc3cc4cc(-c5cnn(C)c5)ccc4cn3)ccn2)CC1: Yes

Problem: State whether 40% exceeds viability, T/C recorded for CC1COCCN1c1cc(C2(S(C)(=N)=O)CC2)nc(-c2ccnc3[nH]ccc23)n1 (stereo unspecified) + CN1CCN(c2cc(C(=O)Nc3cc4cc(-c5cnn(C)c5)ccc4cn3)ccn2)CC1 .
Result: Yes

Problem: Would you kindly verify if viability, T/C of CC1(C)CCC(CN2CCN(c3ccc(C(=O)NS(=O)(=O)c4ccc(NCC5CCOCC5)c([N+](=O)[O-])c4)c(Oc4cnc5[nH]ccc5c4)c3)CC2)=C(c2ccc(Cl)cc2)C1 + CNC(=O)c1ccc(Nc2nc(OC3CCCC3)c3c(-c4ccc5nc(C)oc5c4)c[nH]c3n2)c(OC)c1 is strictly less than 40%?
Result: No

Problem: Check if viability, T/C falls below 40% for COc1ccc([C@@H](O)c2cc(-c3ncnc4cc(N5CCOCC5)ccc34)c(F)cc2Cl)nn1 + CNC(=O)c1ccc(Nc2nc(OC3CCCC3)c3c(-c4ccc5nc(C)oc5c4)c[nH]c3n2)c(OC)c1 .
Result: No

Problem: # strict comparison: is reported viability, T/C < 40%? input = C#Cc1c(F)ccc2cc(O)cc(-c3ncc4c(N5CC6CCC(C5)N6)nc(OCC56CCCN5CC(F)C6)nc4c3F)c12 (stereo unspecified) + CNC(=O)c1ccc(Nc2nc(OC3CCCC3)c3c(-c4ccc5nc(C)oc5c4)c[nH]c3n2)c(OC)c1
Result: No

Problem: Is the reported viability, T/C for CCN1CCN(Cc2ccc(Nc3ncc(F)c(-c4cc(F)c5nc(C)n(C(C)C)c5c4)n3)nc2)CC1 + CNC(=O)c1ccc(Nc2nc(OC3CCCC3)c3c(-c4ccc5nc(C)oc5c4)c[nH]c3n2)c(OC)c1 strictly below 40%?
Result: No

Every entry's value here was drawn from PubChem BioAssay AID2060611.
